Ref: the RNAGym collection of RNA variant scans (doi:10.7554/elife.90254)

B1: LINE1-full (parent)
chain: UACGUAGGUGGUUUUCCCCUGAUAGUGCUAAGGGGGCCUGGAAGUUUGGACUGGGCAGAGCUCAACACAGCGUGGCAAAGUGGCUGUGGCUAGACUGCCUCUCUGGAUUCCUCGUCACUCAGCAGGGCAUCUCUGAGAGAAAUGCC

- Variants of: B1
- TEST NAME: self-cleavage, relative activity (ratio to wild type); higher = more cleavage; in vitro, sequencing; the parent is a self-cleaving ribozyme
MEASURED METRIC: self-cleavage
// no unit, no text: just the number

variant_string="A59U U130C" measured_metric=self-cleavage reported_value=0.63
variant_string="A79U A121G" measured_metric=self-cleavage reported_value=1.58
variant_string="U52A A136G" measured_metric=self-cleavage reported_value=1.4
variant_string="A24C C99A" measured_metric=self-cleavage reported_value=0.47
variant_string="U20C G54A" measured_metric=self-cleavage reported_value=0.65
variant_string="U115A C128U" measured_metric=self-cleavage reported_value=1.23
variant_string="C51A A141G" measured_metric=self-cleavage reported_value=1.75
variant_string="U15C U45A" measured_metric=self-cleavage reported_value=1.49

Lab book: self-cleavage of A57U G127A noted as 0.1

Lab note: measured self-cleavage of A43U A94U was 0.24
